Provide the recorded Neutralization (Ave IC50 ug/ml) for the entries that follow.
# Subject of test: HA of influenza B virus B/Florida/4/2006 (yamagata) (influenza B virus B/Florida/4/2006)
# Method summary: cell-based or functional assay
One number for each entry, in µg/mL.

Example entries begin here.
{"Binder": "FBD-94 (antibody, V domains shown) VH: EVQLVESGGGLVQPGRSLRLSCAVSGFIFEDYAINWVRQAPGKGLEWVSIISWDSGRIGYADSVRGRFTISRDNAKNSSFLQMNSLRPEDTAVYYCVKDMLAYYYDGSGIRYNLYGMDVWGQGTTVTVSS VL: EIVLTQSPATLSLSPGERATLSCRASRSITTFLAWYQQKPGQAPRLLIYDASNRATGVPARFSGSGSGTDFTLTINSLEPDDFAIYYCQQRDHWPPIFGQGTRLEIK", "Neutralization (Ave IC50 ug/ml), µg/mL": 0.016}
{"Binder": "FBC-39 LTL (antibody, V domains shown) VH: EVQLVESGGGLVKPGGSLRLSCAASGLTFLNAWMSWVRQAPGKGLEWVGRIKSNTDGGTTDYAAPVKGRFTISRDDSKNTLYLQMSSLKTEDTAVYYCTTDGPYSDDFRSGYAARYRYFGMDVWGQGTTVTVSS VL: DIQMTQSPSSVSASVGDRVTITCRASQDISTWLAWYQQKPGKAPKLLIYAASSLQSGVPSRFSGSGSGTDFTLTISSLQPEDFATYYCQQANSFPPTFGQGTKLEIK", "Neutralization (Ave IC50 ug/ml), µg/mL": 0.023}

Proceed to the following item.
The reported value for FBC-39 FTL (antibody, V domains shown) VH: EVQLVESGGGLVKPGGSLRLSCAASGFTFLNAWMSWVRQAPGKGLEWVGRIKSNTDGGTTDYAAPVKGRFTISRDDSKNTLYLQMSSLKTEDTAVYYCTTDGPYSDDFRSGYAARYRYFGMDVWGQGTTVTVSS VL: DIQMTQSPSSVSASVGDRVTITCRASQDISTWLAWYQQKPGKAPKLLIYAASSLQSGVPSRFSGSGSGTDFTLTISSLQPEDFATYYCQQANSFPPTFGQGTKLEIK in terms of Neutralization (Ave IC50 ug/ml) is 0.014

// provenance: patent US20250263470A1
